A collection of molecules and their measured pIC50
- target.system: CLK1 (Homo sapiens)
- Construct: GST-fusion or His-tag (not specified per kinase); purchased ProQinase GmbH; host or cells: Sf9 insect cells or E. coli (not specified per kinase)
- Sequence (P49759 whole entry, the tested form may be a part): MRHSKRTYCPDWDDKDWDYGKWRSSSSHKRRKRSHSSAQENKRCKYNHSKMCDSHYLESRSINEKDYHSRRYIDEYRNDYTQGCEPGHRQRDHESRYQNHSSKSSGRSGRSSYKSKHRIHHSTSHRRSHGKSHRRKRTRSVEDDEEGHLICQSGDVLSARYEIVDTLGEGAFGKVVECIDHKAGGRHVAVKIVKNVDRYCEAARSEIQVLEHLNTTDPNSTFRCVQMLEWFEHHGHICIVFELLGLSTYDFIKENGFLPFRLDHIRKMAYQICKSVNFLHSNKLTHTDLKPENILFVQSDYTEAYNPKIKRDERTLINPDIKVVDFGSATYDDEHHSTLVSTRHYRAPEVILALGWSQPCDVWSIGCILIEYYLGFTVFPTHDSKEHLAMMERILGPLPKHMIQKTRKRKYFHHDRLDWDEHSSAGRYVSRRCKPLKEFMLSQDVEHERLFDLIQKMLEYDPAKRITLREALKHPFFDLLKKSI
- assay.remarks: Radiometric protein kinase assay (33PanQinase Activity Assay), CLK1
- Assay type: biochemical
- cond: class by IC50 on CLK1, from dose-response curves; read-out: Potency Class CLK1
pIC50: −log10 of the molar value.
outcome.measure: pIC50

O=C1NC(NCC2CCOCC2)=N/C1=C\c1ccc2nccnc2c1 [Compound 32] :: < 7.30
O=C1NC(NC23CC4CC(CC(O)(C4)C2)C3)=N/C1=C\c1ccc2nccnc2c1 [Compound 18] :: 7.60 to 8.00
Cc1csc(CNC2=N/C(=C\c3ccc4nccnc4c3)C(=O)N2)n1 [Compound 31] :: < 7.30
COC[C@@H](CC(C)C)NC1=N/C(=C\c2ccc3ncccc3c2)C(=O)N1 [Compound 47] :: < 7.30
O=C1NC(N[C@H]2CCCOC2)=N/C1=C\c1ccc2nccnc2c1 [Compound 38] :: < 7.30
O=C1NC(N[C@@H](CO)c2ccccc2)=N/C1=C\c1ccc2nccnc2c1 [Compound 24] :: 7.30 to 7.60
COC12CC3CC(CC(NC4=N/C(=C\c5ccc6nccnc6c5)C(=O)N4)(C3)C1)C2 [Compound 19] :: 7.60 to 8.00
O=C1NC(NC2CCCCCC2)=N/C1=C\c1ccc2ncccc2n1 [Compound 80] :: 7.30 to 7.60
O=C1NC(NC23CC4CC(CC2C4)C3)=N/C1=C\c1ccc2ncccc2c1 [Compound 48] :: 7.60 to 8.00

----------
A collection of compounds and their measured pIC50
- target.system: DYRK1A (Homo sapiens)
- Construct: GST-fusion or His-tag (not specified per kinase); purchased ProQinase GmbH; host or cells: Sf9 insect cells or E. coli (not specified per kinase)
- assay.remarks: Radiometric protein kinase assay (33PanQinase Activity Assay), DYRK1A
- Format: biochemical
- cond: class by IC50 on DYRK1A, from dose-response curves; read-out: Potency Class DYRK1A
pIC50: −log10 of the molar value.
outcome.measure: pIC50

O=C1NC(NC2CCCCC2)=N/C1=C\c1ccc2ncccc2c1 :: < 7.30
O=C1NC(NC2CCCCC2)=N/C1=C\c1ccc2ncncc2c1 :: < 7.30
CN1C(=O)/C(=C/c2ccc3ncncc3c2)N=C1NC1CCCCC1 :: < 7.30
CC(C)C[C@H](CO)NC1=N/C(=C\c2ccc3ncccc3c2)C(=O)N1 :: 7.60 to 8.00
COC[C@@H](CC(C)C)NC1=N/C(=C\c2ccc3ncccc3c2)C(=O)N1 :: 7.30 to 7.60

----------
- target.system: DYRK1A (Homo sapiens, UniProt Q13627)
- Construct: GST-fusion or His-tag (not specified per kinase); purchased ProQinase GmbH; host or cells: Sf9 insect cells or E. coli (not specified per kinase)
- assay.remarks: Radiometric protein kinase assay (33PanQinase Activity Assay), DYRK1A
- Type: biochemical
- cond: class by IC50 on DYRK1A, from dose-response curves; read-out: Potency Class DYRK1A
Structures can show the parent of a compound that is named as a salt.
A collection of molecules and their measured IC50
outcome.measure: IC50

O=C1NC(NC2CCCCCC2)=N/C1=C\c1ccc2ncccc2n1 :: 10 to 25 nM
O=C1NC(NC[C@H](O)c2ccccc2)=N/C1=C\c1ccc2nccnc2c1 :: > 50 nM
NC[C@H](NC1=N/C(=C\c2ccc3nccnc3c2)C(=O)N1)c1ccccc1 [Compound 28, dihydrochloride] :: 25 to 50 nM
O=C1NC(NC23CC4CC(CC(O)(C4)C2)C3)=N/C1=C\c1ccc2ncccc2c1 :: < 5 nM
COC[C@@H](CC(C)C)NC1=N/C(=C\c2ccc3cnccc3c2)C(=O)N1 :: > 50 nM
